B1: LINE1-full (parent)
chain: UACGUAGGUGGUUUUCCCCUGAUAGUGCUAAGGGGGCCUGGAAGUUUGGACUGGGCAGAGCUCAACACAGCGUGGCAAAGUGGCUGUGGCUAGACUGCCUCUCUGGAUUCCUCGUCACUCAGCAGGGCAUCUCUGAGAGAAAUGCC

# Variants of: B1
# test_method_notes: self-cleavage, relative activity (ratio to wild type); higher = more cleavage; in vitro, sequencing; the parent is a self-cleaving ribozyme
The threshold is inclusive: self-cleavage of exactly 1 counts as met; values below receive not met.

Example results:
variant_designation	category
U45C U108C	met
U73C C131G	met
A77G A78G	met
A121U G125C	met
U45C A79G	met

Please check the record A31U G86A and state if its self-cleavage is at or above 1.
not met

Is self-cleavage at least 1? Consider U12C G122U
met

In plain terms: is recorded self-cleavage at least 1 for A30G U62A ?
not met

For this variant, is measured self-cleavage 1 or higher? C84U U112A
not met

Kindly determine if self-cleavage recorded for U47A U112A is above or exactly 1.
not met

API: above_or_equal(metric=self-cleavage, cutoff=1) for item G122A U143C
met

Determine whether measured self-cleavage meets or exceeds 1 for C19U A94U
not met

Identify whether the reported self-cleavage of the following variant is 1 or greater: G88A U108C
not met

Is reported self-cleavage greater than or equal to 1 here: A57G U115A
not met

Item U9G A50G with self-cleavage of 1 or above?
not met

Hi, just wondering whether U1C G83U shows self-cleavage of 1 or higher.
not met

Reported self-cleavage at or above 1? A92G U143C
not met

Does the reported self-cleavage for A67G C131U fall at or above the 1 mark?
not met

Could you verify whether the entry A31G A78G shows self-cleavage of no less than 1?
not met

self-cleavage >= 1 for G72U C116A ?
met

Form field: self-cleavage at least 1? Entry: G41C A138G
not met
